Item-by-item account of CC50
- assay_remarks: in vitro
- setup_conditions: dog, CC50, run with Influenza A H1N1 California/07/2009; Neutral Red
Bridge positions count the residues as written; N and C are the ends. Square brackets hold non-standard residues; d marks the D form. Peptide text beside a SMILES is read from it. R8 = C=CCCCCCC[C@@](C)(N)C(=O)O; S5 = C=CCCC[C@](C)(N)C(=O)O; Nle = CCCC[C@H](N)C(=O)O; Aib = CC(C)(N)C(=O)O
measurement_kind: CC50

| molecule | measurement_kind | reported |
| --- | --- | --- |
| CCCC[C@H](NC(C)=O)C(=O)N[C@@H](CC(=O)O)C(=O)N[C@H](C(=O)N[C@@H](CC(N)=O)C(=O)N[C@]1(C)CCCCCCC=CCCC[C@@](C)(C(=O)N[C@@H](C)C(=O)N[C@@H](C)C(=O)N[C@@H](CCC(N)=O)C(=O)N[C@@H](C)C(=O)N[C@@H](C)C(N)=O)NC(=O)[C@H](C)NC(=O)[C@H](CC(C)C)NC(=O)[C@H](Cc2ccccc2)NC(=O)[C@H](CC(C)C)NC(=O)[C@H](CC(C)C)NC(=O)[C@H]([C@@H](C)O)NC1=O)C(C)C [SP-24] (Ac-[Nle]DVN[R8]TLLFLA[S5]AAQAA-NH2; staple 5-12) | CC50 | > 100 µM |
| CCCC[C@H](NC(C)=O)C(=O)N[C@@H](CC(=O)O)C(=O)N[C@H](C(=O)N[C@@H](CC(N)=O)C(=O)N[C@]1(C)CCCCCCC=CCCC[C@@](C)(C(=O)N[C@@H](C)C(=O)N[C@@H](C)C(=O)N[C@@H](C)C(=O)N[C@@H](C)C(=O)N[C@@H](C)C(N)=O)NC(=O)[C@H](C)NC(=O)[C@H](CC(C)C)NC(=O)[C@H](Cc2ccccc2)NC(=O)[C@H](CC(C)C)NC(=O)[C@H](CC(C)C)NC(=O)[C@H]([C@@H](C)O)NC1=O)C(C)C [SP-25] (Ac-[Nle]DVN[R8]TLLFLA[S5]AAAAA-NH2; staple 5-12) | CC50 | > 100 µM |
| CCCC[C@H](NC(C)=O)C(=O)N[C@@H](CC(=O)O)C(=O)N[C@H](C(=O)N[C@@H](CC(N)=O)C(=O)N[C@@]1(C)CCCC=CCCC[C@@](C)(C(=O)N[C@@H](CC(C)C)C(=O)N[C@@H](C)C(=O)N[C@H](C(=O)N[C@@H](CCC(N)=O)C(=O)N[C@@H](C)C(=O)N[C@@H](C)C(=O)NC(C)(C)C(=O)N[C@@H](C)C(N)=O)C(C)C)NC(=O)[C@H](CC(C)C)NC(=O)[C@H](CC(C)C)NC(=O)[C@H]([C@@H](C)O)NC1=O)C(C)C [SP-22] (Ac-[Nle]DVN[S5]TLL[S5]LAVQAA[Aib]A-NH2; staple 5-9) | CC50 | > 100 µM |

----------
- assay_remarks: in vitro
- setup_conditions: dog, CC50, MDCK cells; run with Influenza A H3N2 Victoria/3/75-M; Visual
Bridge positions count the residues as written; N and C are the ends. Square brackets hold non-standard residues; d marks the D form. Peptide text beside a SMILES is read from it. S5 = C=CCCC[C@](C)(N)C(=O)O; Nle = CCCC[C@H](N)C(=O)O; Aib = CC(C)(N)C(=O)O
measurement_kind: CC50

| molecule | reported |
| --- | --- |
| CCCC[C@H](NC(C)=O)C(=O)N[C@@H](CC(=O)O)C(=O)N[C@H](C(=O)N[C@@H](CC(N)=O)C(=O)N[C@@]1(C)CCCC=CCCC[C@@](C)(C(=O)N[C@@H](CC(C)C)C(=O)N[C@@H](C)C(=O)N[C@H](C(=O)NC(C)(C)C(=O)N[C@@H](C)C(=O)N[C@@H](CCC(N)=O)C(N)=O)C(C)C)NC(=O)[C@H](CC(C)C)NC(=O)[C@H](CC(C)C)NC(=O)[C@H]([C@@H](C)O)NC1=O)C(C)C [SP-6] (Ac-[Nle]DVN[S5]TLL[S5]LAV[Aib]AQ-NH2; staple 5-9) | > 100 µM |

----------
Item-by-item account of EC50
- System: H3N2 Perth/16/2009
- assay_remarks: microbe, parasite or virus in culture
- Format: cell-based, influenza A virus
- setup_conditions: read-out: EC50 (μM) H3N2 Perth/16/2009
Bridge positions count the residues as written; N and C are the ends. Square brackets hold non-standard residues; d marks the D form. Peptide text beside a SMILES is read from it. S5 = C=CCCC[C@](C)(N)C(=O)O; Nle = CCCC[C@H](N)C(=O)O; Aib = CC(C)(N)C(=O)O

| molecule | EC50 |
| --- | --- |
| CCCC[C@H](NC(C)=O)C(=O)N[C@@H](CC(=O)O)C(=O)N[C@H](C(=O)N[C@@H](CC(N)=O)C(=O)N[C@@]1(C)CCCC=CCCC[C@@](C)(C(=O)N[C@@H](CC(C)C)C(=O)N[C@@H](C)C(=O)N[C@H](C(=O)NC(C)(C)C(=O)N[C@@H](C)C(=O)N[C@@H](CCC(N)=O)C(=O)N[C@@H](C)C(=O)N[C@@H](C)C(N)=O)C(C)C)NC(=O)[C@H](CC(C)C)NC(=O)[C@H](CC(C)C)NC(=O)[C@H]([C@@H](C)O)NC1=O)C(C)C [SP-7] (Ac-[Nle]DVN[S5]TLL[S5]LAV[Aib]AQAA-NH2; staple 5-9) | 25 to 50 µM |
| CC(=O)N[C@@H](Cc1ccccc1)C(=O)N[C@@H](CC(=O)O)C(=O)N[C@H](C(=O)N[C@@H](CC(N)=O)C(=O)N[C@@]1(C)CCCC=CCCC[C@@](C)(C(=O)N[C@@H](CC(C)C)C(=O)N[C@@H](CCCCN)C(=O)N[C@H](C(=O)NC(C)(C)C(=O)N[C@@H](C)C(=O)N[C@@H](CCC(N)=O)C(N)=O)C(C)C)NC(=O)[C@H](CC(C)C)NC(=O)[C@H](CC(C)C)NC(=O)[C@H]([C@@H](C)O)NC1=O)C(C)C [SP-4] (Ac-FDVN[S5]TLL[S5]LKV[Aib]AQ-NH2; staple 5-9) | 25 to 50 µM |

----------
- Test system: Madin Darby canine kidney (MDCK) cells
- setup_conditions: run with Influenza A H5N1 A/Hong Kong/213/2003; Neutral Red

| molecule | CC50 |
| --- | --- |
| NC(=O)c1ncn([C@@H]2O[C@H](CO)[C@@H](O)[C@H]2O)n1 [Ribavirin, reference compound] | > 1000 µM |

----------
- assay_remarks: in vitro
- setup_conditions: dog, CC50, run with Influenza A H3N2 Perth/16/2006 (so in the source); Visual
Bridge positions count the residues as written; N and C are the ends. Square brackets hold non-standard residues; d marks the D form. Peptide text beside a SMILES is read from it. S5 = C=CCCC[C@](C)(N)C(=O)O; Nle = CCCC[C@H](N)C(=O)O; Aib = CC(C)(N)C(=O)O
measurement_kind: CC50

| compound | reported |
| --- | --- |
| CCCC[C@H](NC(C)=O)C(=O)N[C@@H](CC(=O)O)C(=O)N[C@H](C(=O)N[C@@H](CC(N)=O)C(=O)N[C@@]1(C)CCCC=CCCC[C@@](C)(C(=O)N[C@@H](CC(C)C)C(=O)N[C@@H](C)C(=O)N[C@H](C(=O)N[C@@H](CCC(N)=O)C(=O)NC(C)(C)C(=O)N[C@@H](CCC(N)=O)C(=O)N[C@@H](C)C(=O)N[C@@H](C)C(N)=O)C(C)C)NC(=O)[C@H](CC(C)C)NC(=O)[C@H](CC(C)C)NC(=O)[C@H]([C@@H](C)O)NC1=O)C(C)C [SP-19] (Ac-[Nle]DVN[S5]TLL[S5]LAVQ[Aib]QAA-NH2; staple 5-9) | > 100 µM |

----------
- assay_remarks: in vitro
- setup_conditions: dog, CC50, MDCK cells; run with Influenza A H3N2 Victoria/3/75-M; Neutral Red
Bridge positions count the residues as written; N and C are the ends. Square brackets hold non-standard residues; d marks the D form. Peptide text beside a SMILES is read from it. S5 = C=CCCC[C@](C)(N)C(=O)O; Nle = CCCC[C@H](N)C(=O)O; Aib = CC(C)(N)C(=O)O
measurement_kind: CC50

| compound | measurement_kind | reported |
| --- | --- | --- |
| CCCC[C@H](NC(C)=O)C(=O)N[C@@H](CC(=O)O)C(=O)N[C@H](C(=O)N[C@@H](CC(N)=O)C(=O)N[C@@]1(C)CCCC=CCCC[C@@](C)(C(=O)N[C@@H](CC(C)C)C(=O)N[C@@H](C)C(=O)N[C@H](C(=O)NC(C)(C)C(=O)N[C@@H](C)C(=O)N[C@@H](CCC(N)=O)C(N)=O)C(C)C)NC(=O)[C@H](CC(C)C)NC(=O)[C@H](CC(C)C)NC(=O)[C@H]([C@@H](C)O)NC1=O)C(C)C [SP-6] (Ac-[Nle]DVN[S5]TLL[S5]LAV[Aib]AQ-NH2; staple 5-9) | CC50 | > 100 µM |
